Could you please report measured pEC50 for the items listed next?
assayed target: T1, cynomolgus monkey PD-L1 on CHO-K1 cells overexpressing cynomolgus monkey PD-L1 (cynomolgus monkey, UniProt G7PSE7 19-290)
T1 construct: also called CHO-K1/cynoPD-L1; GenScript M00573
T1 sequence (G7PSE7 entry or part of it limits assumed): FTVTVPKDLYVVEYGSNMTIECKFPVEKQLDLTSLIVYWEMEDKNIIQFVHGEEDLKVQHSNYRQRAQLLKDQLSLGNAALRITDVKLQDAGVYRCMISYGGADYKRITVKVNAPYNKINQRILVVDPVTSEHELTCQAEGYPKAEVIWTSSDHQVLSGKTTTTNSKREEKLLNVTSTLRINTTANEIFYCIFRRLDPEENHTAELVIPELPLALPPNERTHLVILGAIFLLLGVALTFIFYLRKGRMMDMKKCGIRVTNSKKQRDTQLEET
procedure summary: flow cytometry on CHO-K1 cells overexpressing cynomolgus monkey PD-L1 (CHO-K1/cynoPD-L1)
Note on pEC50: it is the negative log10 of concentration, concentration in mol/L.

Input: Annotate the binder PR001065 (antibody, human IgG1, V domains shown, Heavy-chain-only antibody (HCAb): human VH fused to human IgG1 Fc; no light chain; also called anti-PD-L1 HCAb antibody) VH: EVQLVESGGGVVQPGRSLRLSCAASGFNFSSYGMYWVRQAPGKGQEWVAIIWYDGTKKHYADSVKGRFTISRDNSKNTLYLEMNSLRVEDTAVYYCAKNRAIFGVVPDASDIRGQGTMVTVSS with its measured pEC50.
Output: 9.15

Input: Annotate the binder PR001058 (antibody, human IgG1, V domains shown, Heavy-chain-only antibody (HCAb): human VH fused to human IgG1 Fc; no light chain; also called anti-PD-L1 HCAb antibody) VH: EVQLVESGGGVVQPGRSLRLSCAASGFTFSSYGMYWVRQAPGKGQEWVAIIWYDGTKKHYADSVKGRFTISRDNSKNTLYLEMNSLRVEDTAVYYCAKNRAIFGVVPDASDIRGQGTMVTVSS with its measured pEC50.
Output: 9.40
